Ref: patent US8703961B2

// reported pIC50 for each item listed
# experimental_target: IGF1R (Homo sapiens, UniProt P08069)
# Sequence (P08069 31-1367, species assumed): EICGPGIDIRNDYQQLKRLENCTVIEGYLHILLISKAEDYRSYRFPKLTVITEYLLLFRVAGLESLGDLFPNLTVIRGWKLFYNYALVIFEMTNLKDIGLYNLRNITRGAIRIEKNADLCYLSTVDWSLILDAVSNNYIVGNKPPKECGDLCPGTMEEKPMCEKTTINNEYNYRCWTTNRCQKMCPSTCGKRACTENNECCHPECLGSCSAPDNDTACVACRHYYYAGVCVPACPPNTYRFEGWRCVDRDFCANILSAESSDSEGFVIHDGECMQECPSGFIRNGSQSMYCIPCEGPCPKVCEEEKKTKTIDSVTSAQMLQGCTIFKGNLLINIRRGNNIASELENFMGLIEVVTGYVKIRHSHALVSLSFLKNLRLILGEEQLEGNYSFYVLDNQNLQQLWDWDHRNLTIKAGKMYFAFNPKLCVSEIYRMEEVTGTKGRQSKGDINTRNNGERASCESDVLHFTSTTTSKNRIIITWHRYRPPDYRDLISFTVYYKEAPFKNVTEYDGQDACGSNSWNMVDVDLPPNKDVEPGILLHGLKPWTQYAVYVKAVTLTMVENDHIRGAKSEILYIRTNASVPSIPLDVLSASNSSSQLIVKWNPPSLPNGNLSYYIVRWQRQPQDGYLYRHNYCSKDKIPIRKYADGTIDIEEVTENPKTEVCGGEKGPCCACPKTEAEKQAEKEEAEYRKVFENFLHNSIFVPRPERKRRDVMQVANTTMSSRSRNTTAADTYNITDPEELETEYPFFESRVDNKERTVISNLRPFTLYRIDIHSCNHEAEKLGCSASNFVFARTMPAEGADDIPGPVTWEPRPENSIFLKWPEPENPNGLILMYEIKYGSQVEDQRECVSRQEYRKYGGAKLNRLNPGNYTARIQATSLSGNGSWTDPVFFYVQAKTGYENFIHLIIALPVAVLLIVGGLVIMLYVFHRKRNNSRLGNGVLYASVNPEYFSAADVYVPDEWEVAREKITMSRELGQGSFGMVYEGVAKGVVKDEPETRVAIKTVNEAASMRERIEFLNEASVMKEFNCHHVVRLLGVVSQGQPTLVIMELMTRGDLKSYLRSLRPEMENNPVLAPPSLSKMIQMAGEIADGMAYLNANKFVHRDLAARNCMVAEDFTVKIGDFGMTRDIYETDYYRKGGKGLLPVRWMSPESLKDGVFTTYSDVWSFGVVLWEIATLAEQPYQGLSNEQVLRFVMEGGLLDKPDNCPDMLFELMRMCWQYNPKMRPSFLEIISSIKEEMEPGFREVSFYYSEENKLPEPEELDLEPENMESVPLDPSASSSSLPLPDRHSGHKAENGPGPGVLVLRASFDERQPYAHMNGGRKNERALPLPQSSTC
pIC50: −log10 of the molar value.
readout_label: pIC50

compound=CC(C)(C)OC(=O)Nc1nc(-c2ccncc2)sc1C#CCN1CCOCC1 experimental_target="IGF1R (Homo sapiens, UniProt P08069)" result="< 6.00"
compound=Nc1ncsc1C#Cc1cccc(O)c1 experimental_target="IGF1R (Homo sapiens, UniProt P08069)" result="< 6.00"
compound=Nc1ncsc1C#Cc1cnc2[nH]ccc2c1 experimental_target="IGF1R (Homo sapiens, UniProt P08069)" result="5.00 to 6.00"
compound="c1ccc(Cc2c[nH]c3ncsc23)cc1 [Compound A7, 6-benzyl-4H-pyrrolo[2,3-d]thiazole]" experimental_target="IGF1R (Homo sapiens, UniProt P08069)" result="4.00 to 5.00"
compound=CC(C)(C)OC(=O)Nc1ncsc1C#CCN1C(=O)c2ccccc2C1=O experimental_target="IGF1R (Homo sapiens, UniProt P08069)" result="< 6.00"

###

# experimental_target: IRAK4 (Homo sapiens)
# Construct: purchased
# Sequence (Q9NWZ3 whole entry, species assumed): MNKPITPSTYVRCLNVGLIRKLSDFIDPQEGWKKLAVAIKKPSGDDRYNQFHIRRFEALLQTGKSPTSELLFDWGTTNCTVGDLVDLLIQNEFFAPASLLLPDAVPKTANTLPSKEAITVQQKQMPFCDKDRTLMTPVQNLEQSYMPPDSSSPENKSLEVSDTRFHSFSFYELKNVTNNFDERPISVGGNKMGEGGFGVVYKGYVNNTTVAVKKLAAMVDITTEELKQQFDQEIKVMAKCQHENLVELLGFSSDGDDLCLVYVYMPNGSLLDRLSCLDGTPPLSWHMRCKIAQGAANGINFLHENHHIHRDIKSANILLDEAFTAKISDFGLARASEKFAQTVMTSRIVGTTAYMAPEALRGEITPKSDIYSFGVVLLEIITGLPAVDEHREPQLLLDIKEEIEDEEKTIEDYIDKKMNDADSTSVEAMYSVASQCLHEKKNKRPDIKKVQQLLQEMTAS
# test_protocol: filter binding kinase assay
# Type: biochemical
# condition_set: derived from % inhibition at 1 μM
pIC50: −log10 of the molar value.
// reported pIC50 for each item listed
readout_label: pIC50

compound="c1ccc(Cc2c[nH]c3ncsc23)cc1 [Compound A7, 6-benzyl-4H-pyrrolo[2,3-d]thiazole]" readout_label=pIC50 result="< 6.00"
compound=CC(C)(C)OC(=O)Nc1nc(-c2ccncc2)sc1C#CCN1CCOCC1 readout_label=pIC50 result="4.00 to 5.00"
compound=Nc1ncsc1C#Cc1cnc2[nH]ccc2c1 readout_label=pIC50 result="< 6.00"
compound=CC(C)(C)OC(=O)Nc1ncsc1C#CCN1C(=O)c2ccccc2C1=O readout_label=pIC50 result="4.00 to 5.00"
compound=Nc1ncsc1C#Cc1cccc(O)c1 readout_label=pIC50 result="4.00 to 5.00"

###

# experimental_target: PLK1 (Homo sapiens, UniProt P53350)
# Construct: purchased
# Sequence (P53350 whole entry, species assumed): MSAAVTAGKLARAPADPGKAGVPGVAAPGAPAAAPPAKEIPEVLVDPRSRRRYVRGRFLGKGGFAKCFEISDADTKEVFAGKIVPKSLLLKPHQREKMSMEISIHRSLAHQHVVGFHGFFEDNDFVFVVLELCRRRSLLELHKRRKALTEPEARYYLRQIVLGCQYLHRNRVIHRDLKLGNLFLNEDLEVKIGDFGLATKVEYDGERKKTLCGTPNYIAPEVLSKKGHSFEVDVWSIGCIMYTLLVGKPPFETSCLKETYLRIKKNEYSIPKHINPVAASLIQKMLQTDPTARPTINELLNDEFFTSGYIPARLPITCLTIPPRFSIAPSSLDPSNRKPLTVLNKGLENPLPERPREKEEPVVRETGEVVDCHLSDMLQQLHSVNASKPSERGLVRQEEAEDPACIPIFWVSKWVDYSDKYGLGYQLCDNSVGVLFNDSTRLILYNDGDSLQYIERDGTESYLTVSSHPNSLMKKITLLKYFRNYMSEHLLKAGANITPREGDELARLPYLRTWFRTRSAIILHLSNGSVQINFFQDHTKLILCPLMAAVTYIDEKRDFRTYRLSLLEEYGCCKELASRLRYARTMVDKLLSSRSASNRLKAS
# test_protocol: filter binding kinase assay
# Type: biochemical
# condition_set: derived from % inhibition at 1 μM
pIC50: −log10 of the molar value.
// reported pIC50 for each item listed
readout_label: pIC50

compound="c1ccc(Cc2c[nH]c3ncsc23)cc1 [Compound A7, 6-benzyl-4H-pyrrolo[2,3-d]thiazole]" readout_label=pIC50 result="< 6.00"
compound="CC(C)(C)OC(=O)Nc1nc(-c2ccncc2)sc1C#CCN1CCOCC1 [Compound A25]" readout_label=pIC50 result="< 6.00"
compound="Nc1ncsc1C#Cc1cccc(O)c1 [Compound A27, 3-(4-aminothiazol-5-ylethynyl)phenol]" readout_label=pIC50 result="4.00 to 5.00"
compound="Nc1ncsc1C#Cc1cnc2[nH]ccc2c1 [Compound A22]" readout_label=pIC50 result="5.00 to 6.00"
compound="CC(C)(C)OC(=O)Nc1ncsc1C#CCN1C(=O)c2ccccc2C1=O [Compound A26]" readout_label=pIC50 result="< 6.00"

###

# experimental_target: MAP4K2 (GCK) (Homo sapiens)
# Sequence (Q12851 1-820): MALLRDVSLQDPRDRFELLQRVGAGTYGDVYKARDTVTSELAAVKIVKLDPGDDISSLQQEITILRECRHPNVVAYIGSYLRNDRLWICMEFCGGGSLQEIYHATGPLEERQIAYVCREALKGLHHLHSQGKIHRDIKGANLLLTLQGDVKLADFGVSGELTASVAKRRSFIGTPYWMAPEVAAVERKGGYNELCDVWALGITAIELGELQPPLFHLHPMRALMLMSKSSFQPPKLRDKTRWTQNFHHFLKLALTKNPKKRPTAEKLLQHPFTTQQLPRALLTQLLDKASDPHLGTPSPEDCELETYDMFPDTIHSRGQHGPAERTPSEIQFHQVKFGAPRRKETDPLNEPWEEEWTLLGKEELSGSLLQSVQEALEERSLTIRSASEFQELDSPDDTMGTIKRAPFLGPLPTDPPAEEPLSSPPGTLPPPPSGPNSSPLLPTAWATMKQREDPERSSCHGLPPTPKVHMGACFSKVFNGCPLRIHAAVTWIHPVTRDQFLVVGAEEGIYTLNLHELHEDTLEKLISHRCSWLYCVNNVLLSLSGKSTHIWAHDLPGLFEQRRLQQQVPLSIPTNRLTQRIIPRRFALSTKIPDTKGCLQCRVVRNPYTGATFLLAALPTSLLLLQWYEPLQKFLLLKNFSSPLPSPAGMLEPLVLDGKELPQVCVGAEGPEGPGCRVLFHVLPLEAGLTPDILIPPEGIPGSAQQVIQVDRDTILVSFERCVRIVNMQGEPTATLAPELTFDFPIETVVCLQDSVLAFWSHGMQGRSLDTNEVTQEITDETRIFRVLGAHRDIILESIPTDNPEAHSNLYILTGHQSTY
readout_label: IC50

compound=CC(C)(C)OC(=O)Nc1nc(-c2ccncc2)sc1C#CCN1CCOCC1 result="> 1000 nM"
compound=Nc1ncsc1C#Cc1cccc(O)c1 result="1000 to 10000 nM"
compound=Nc1ncsc1C#Cc1cnc2[nH]ccc2c1 result="10 to 1000 nM"
compound="c1ccc(Cc2c[nH]c3ncsc23)cc1 [Compound A7, 6-benzyl-4H-pyrrolo[2,3-d]thiazole]" result="1000 to 10000 nM"
compound=CC(C)(C)OC(=O)Nc1ncsc1C#CCN1C(=O)c2ccccc2C1=O result="1000 to 10000 nM"

###

# experimental_target: BTK (Homo sapiens, UniProt Q06187)
# Sequence (Q06187 whole entry, species assumed): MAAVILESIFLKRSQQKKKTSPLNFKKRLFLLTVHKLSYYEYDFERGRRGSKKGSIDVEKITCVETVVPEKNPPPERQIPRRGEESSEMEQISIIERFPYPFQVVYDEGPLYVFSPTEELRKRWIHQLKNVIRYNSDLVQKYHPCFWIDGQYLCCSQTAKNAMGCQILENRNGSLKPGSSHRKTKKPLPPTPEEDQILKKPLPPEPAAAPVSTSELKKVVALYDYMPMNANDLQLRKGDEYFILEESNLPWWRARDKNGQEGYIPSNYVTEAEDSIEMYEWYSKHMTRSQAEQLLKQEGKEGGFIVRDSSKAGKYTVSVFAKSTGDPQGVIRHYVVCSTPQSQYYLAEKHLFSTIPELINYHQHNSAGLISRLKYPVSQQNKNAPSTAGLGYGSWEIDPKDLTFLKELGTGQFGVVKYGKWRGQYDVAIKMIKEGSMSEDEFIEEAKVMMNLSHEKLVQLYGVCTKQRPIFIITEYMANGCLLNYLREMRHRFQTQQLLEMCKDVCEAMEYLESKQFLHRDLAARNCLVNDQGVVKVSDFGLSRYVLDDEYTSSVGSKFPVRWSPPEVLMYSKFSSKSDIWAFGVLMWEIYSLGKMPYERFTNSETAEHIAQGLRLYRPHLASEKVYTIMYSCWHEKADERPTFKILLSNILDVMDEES
readout_label: IC50

compound=Nc1ncsc1C#Cc1cccc(O)c1 result="10 to 100 µM"
compound=CC(C)(C)OC(=O)Nc1nc(-c2ccncc2)sc1C#CCN1CCOCC1 result="10 to 100 µM"
compound=CC(C)(C)OC(=O)Nc1ncsc1C#CCN1C(=O)c2ccccc2C1=O result="> 1 µM"
compound=Nc1ncsc1C#Cc1cnc2[nH]ccc2c1 result="10 to 100 µM"
compound="c1ccc(Cc2c[nH]c3ncsc23)cc1 [Compound A7, 6-benzyl-4H-pyrrolo[2,3-d]thiazole]" result="10 to 100 µM"

###

pIC50: −log10 of the molar value.
What follows is a collection of pIC50 values obtained with YES1 (Homo sapiens).
Sequence (P07947 whole entry, species assumed): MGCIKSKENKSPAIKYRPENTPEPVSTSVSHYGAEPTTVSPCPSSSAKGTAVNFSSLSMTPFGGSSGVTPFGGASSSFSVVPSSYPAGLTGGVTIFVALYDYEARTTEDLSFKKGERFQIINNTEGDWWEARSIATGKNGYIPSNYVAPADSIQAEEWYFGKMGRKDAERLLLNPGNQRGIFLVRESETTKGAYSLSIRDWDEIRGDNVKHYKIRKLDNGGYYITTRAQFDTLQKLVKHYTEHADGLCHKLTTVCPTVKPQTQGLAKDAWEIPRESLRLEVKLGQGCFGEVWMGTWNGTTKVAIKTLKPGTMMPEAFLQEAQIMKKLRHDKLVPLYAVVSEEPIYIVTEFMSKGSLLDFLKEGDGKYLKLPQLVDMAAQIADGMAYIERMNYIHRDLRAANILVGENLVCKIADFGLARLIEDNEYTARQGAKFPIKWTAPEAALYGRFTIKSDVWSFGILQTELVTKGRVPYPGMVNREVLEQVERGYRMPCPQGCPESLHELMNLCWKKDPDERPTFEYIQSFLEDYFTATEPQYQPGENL
readout_label: pIC50

molecule=Nc1ncsc1C#Cc1cccc(O)c1 result="< 6.00"
molecule=Nc1ncsc1C#Cc1cnc2[nH]ccc2c1 result="5.00 to 6.00"
molecule="c1ccc(Cc2c[nH]c3ncsc23)cc1 [Compound A7, 6-benzyl-4H-pyrrolo[2,3-d]thiazole]" result="< 6.00"
molecule=CC(C)(C)OC(=O)Nc1nc(-c2ccncc2)sc1C#CCN1CCOCC1 result="< 6.00"
molecule=CC(C)(C)OC(=O)Nc1ncsc1C#CCN1C(=O)c2ccccc2C1=O result="< 6.00"

###

// reported pIC50 for each item listed
# experimental_target: PAK6 (Homo sapiens, UniProt Q9NQU5)
pIC50: −log10 of the molar value.
readout_label: pIC50

molecule=Nc1ncsc1C#Cc1cccc(O)c1 readout_label=pIC50 result="4.00 to 5.00"
molecule=CC(C)(C)OC(=O)Nc1ncsc1C#CCN1C(=O)c2ccccc2C1=O readout_label=pIC50 result="< 6.00"
molecule=Nc1ncsc1C#Cc1cnc2[nH]ccc2c1 readout_label=pIC50 result="4.00 to 5.00"
molecule="c1ccc(Cc2c[nH]c3ncsc23)cc1 [Compound A7, 6-benzyl-4H-pyrrolo[2,3-d]thiazole]" readout_label=pIC50 result="< 6.00"

###

What follows is a collection of IC50 values obtained with MAPK14 (Homo sapiens).
Sequence (Q16539 whole entry, species assumed): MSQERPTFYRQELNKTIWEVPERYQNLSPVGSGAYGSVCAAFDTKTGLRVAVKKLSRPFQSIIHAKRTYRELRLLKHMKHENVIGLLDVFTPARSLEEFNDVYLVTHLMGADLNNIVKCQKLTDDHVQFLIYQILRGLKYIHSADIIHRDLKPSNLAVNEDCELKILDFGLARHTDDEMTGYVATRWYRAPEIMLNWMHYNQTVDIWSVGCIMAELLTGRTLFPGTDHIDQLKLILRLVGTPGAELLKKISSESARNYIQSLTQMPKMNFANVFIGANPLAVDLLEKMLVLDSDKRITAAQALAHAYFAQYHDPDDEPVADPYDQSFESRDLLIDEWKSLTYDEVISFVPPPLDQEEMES
readout_label: IC50

compound="CC(C)(C)OC(=O)Nc1nc(-c2ccncc2)sc1C#CCN1CCOCC1 [Compound A25]" result="10 to 100 µM"
compound="Nc1ncsc1C#Cc1cnc2[nH]ccc2c1 [Compound A22]" result="10 to 100 µM"
compound="Nc1ncsc1C#Cc1cccc(O)c1 [Compound A27, 3-(4-aminothiazol-5-ylethynyl)phenol]" result="1 to 10 µM"

###

What follows is a collection of IC50 values obtained with IKBKB (Homo sapiens).
Sequence (O14920 whole entry, species assumed): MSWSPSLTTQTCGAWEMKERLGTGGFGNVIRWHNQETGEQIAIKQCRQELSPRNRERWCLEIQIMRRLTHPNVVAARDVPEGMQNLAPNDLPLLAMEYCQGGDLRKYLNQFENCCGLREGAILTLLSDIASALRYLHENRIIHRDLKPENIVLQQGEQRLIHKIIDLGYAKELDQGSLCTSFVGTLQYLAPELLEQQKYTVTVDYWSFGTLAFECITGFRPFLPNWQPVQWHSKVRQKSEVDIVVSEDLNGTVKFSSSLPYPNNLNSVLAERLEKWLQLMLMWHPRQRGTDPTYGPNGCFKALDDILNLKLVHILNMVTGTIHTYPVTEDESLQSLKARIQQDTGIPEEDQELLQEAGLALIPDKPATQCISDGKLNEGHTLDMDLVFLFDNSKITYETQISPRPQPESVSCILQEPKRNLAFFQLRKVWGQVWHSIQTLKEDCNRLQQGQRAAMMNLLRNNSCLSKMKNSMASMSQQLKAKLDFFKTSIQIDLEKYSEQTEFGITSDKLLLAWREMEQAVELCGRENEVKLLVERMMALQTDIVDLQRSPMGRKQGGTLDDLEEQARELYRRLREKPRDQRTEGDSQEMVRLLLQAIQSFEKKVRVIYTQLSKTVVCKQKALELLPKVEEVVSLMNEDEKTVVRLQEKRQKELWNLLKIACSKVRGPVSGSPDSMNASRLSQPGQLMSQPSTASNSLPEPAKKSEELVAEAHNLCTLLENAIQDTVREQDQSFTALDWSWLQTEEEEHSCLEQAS
readout_label: IC50

molecule=Nc1ncsc1C#Cc1cccc(O)c1 readout_label=IC50 result="1000 to 10000 nM"
molecule=CC(C)(C)OC(=O)Nc1nc(-c2ccncc2)sc1C#CCN1CCOCC1 readout_label=IC50 result="> 1000 nM"
molecule="c1ccc(Cc2c[nH]c3ncsc23)cc1 [Compound A7, 6-benzyl-4H-pyrrolo[2,3-d]thiazole]" readout_label=IC50 result="1000 to 10000 nM"
molecule=CC(C)(C)OC(=O)Nc1ncsc1C#CCN1C(=O)c2ccccc2C1=O readout_label=IC50 result="> 1000 nM"
